Reference for the values: PubChem BioAssay (NCI)

Test system: 786-0 renal
Test Summary: NCI-60 one-dose screen, 48 h (100 = growth as untreated, 0 = no growth, -100 = all killed)
Experimental Setup: 10 µM unless noted
About 83,000 compounds went through this panel and 20% of them were active in at least one assay; those are over-represented in the sample as a whole.
Measured Attribute: growth (%)
The answer is to be given in %; state only the numeric part.

Solved cases below.
[[record]]
molecule = "CCN(CC)CCNC(=O)c1ccc(-c2nc3ccc4[nH]ncc4c3c3c2CCCC3)cc1"
unit = "%"
numeric_result = 50.6

[[record]]
molecule = "CC(C)c1ccc(-n2c(=S)[nH]c3sc4c(c3c2=O)CCC(=O)C4)cc1"
unit = "%"
numeric_result = 102


The value of growth recorded for CCCCn1sc(=O)n(Cc2ccc(CNC(=O)OCc3ccc4c(Cl)cc(Cl)c(O)c4n3)cc2)c1=O when tested on 786-0 renal reads 67.9

The value of growth recorded for COc1ccc(C2=NN(C(=O)c3cc(OC)c(OC)c(OC)c3)C(c3ccc(N(C)C)cc3)C2)cc1 (stereo not given) when tested on 786-0 renal reads 13.6

The value of growth recorded for COc1ccc(C2=Nc3c(N)ncnc3NC(c3cccc(Nc4ccnc5cc(C(F)(F)F)ccc45)c3)C2)cc1 (stereo not given) when tested on 786-0 renal reads 59.4

----------
System: COLO 205 colon
Test Summary: NCI-60 one-dose screen, 48 h
Experimental Setup: 10 µM unless noted
About 83,000 compounds went through this panel and 20% of them were active in at least one assay; those are over-represented in the sample as a whole. Activity calls are given as the source filed them. How the source made its calls: active means growth percent below 10; inactive means the rest.
Permitted responses: active, inactive

Use these answered entries as a reference point.
[[record]]
molecule = "CC(C)(C)C(=O)/C=C/c1ccc([N+](=O)[O-])cc1"
discrete_label = "inactive"

[[record]]
molecule = "O=C(O)CCCc1cnc2c3sccc3nc(SCc3c(Cl)cccc3Cl)n12"
discrete_label = "inactive"

[[record]]
molecule = "CCOC(=O)c1c(-c2ccccc2)n2c(=O)cc(C)c3c(O)c(O)cc1c32"
discrete_label = "inactive"


Lookup: Please state the recorded outcome for this molecule: O=C1/C(=C/c2ccccc2[N+](=O)[O-])COc2ccc(O)cc21
Found: active

Lookup: Please state the recorded outcome for this molecule: O=C1Nc2ccccc2/C1=C/c1cn(C[C@@H](O)Cn2c3ccccc3c(=O)c3ccccc32)c2ccccc12
Found: inactive

Lookup: Please state the recorded outcome for this molecule: O=C(/C=C/c1cccc(Cl)c1)c1cccc(OCCCCOc2cccc(C(=O)/C=C/c3cccc(Cl)c3)c2)c1
Found: inactive

Lookup: Please state the recorded outcome for this molecule: O=C1C(Cl)=C(NCCN2CCOCC2)C(=O)c2ncccc21
Found: active

Lookup: Please state the recorded outcome for this molecule: N#Cc1nc(-c2ccc(F)cc2)oc1S(=O)(=O)N1CCN(c2ccc(F)cc2)CC1
Found: inactive

Lookup: Please state the recorded outcome for this molecule: O=C1N[C@@H]2[C@@H](O)[C@@H](O)[C@H](O)C[C@H]2c2cc3c(c(O)c21)OCCO3
Found: active

Lookup: Please state the recorded outcome for this molecule: Cc1nn(-c2ccccc2)c(N2CCCCC2)c1/C=N/NC(=O)Cn1c(=O)sc2ccccc21
Found: inactive

Lookup: Please state the recorded outcome for this molecule: Cc1cc(N2CCN(C)CC2)nc(NCc2cc(Nc3ccnc4cc(Cl)ccc34)ccc2F)n1
Found: active
